Measured Quantity: melting point

Prompt: Supply melting point value. Item: CO/C=C(/C(=O)OC)c1ccccc1CO/N=C(\C)CC(O)c1snc(Cl)c1Cl (centres unmarked)
Completion: 36 to 38 °C

Prompt: Give reported melting point value for CO/N=C(/C(=O)NC1CC1)c1ccccc1CO/N=C(\C)c1snc(Cl)c1Cl [CL04-22C]
Completion: 115 to 117 °C

Prompt: Query melting point for CO/N=C(/C(=O)NCC(F)F)c1ccccc1CO/N=C(\C)c1snc(Cl)c1Cl [CL04-22A]
Completion: 78 to 80 °C

Prompt: Specify measured melting point for "CO/C=C(/C(=O)OC)c1ccccc1CO/N=C(C)/C=C/c1snc(Cl)c1Cl" .
Completion: 101 to 103 °C

Prompt: Could you please provide reported melting point for CNC(=O)/C(=N/OC)c1ccccc1CO/N=C(C)/C=C/c1snc(Cl)c1Cl [CL04-32D] ? Thanks!
Completion: 137 to 139 °C

###

- System: Cercospora arachidicola
- Test: Fungicide activity, mycelial growth inhibition on PDA plate
- Format: cell-based
- Measurement Parameters: Mycosphaerella arachidis, 50 μg/mL, C. arachidicola; read-out: Fungicidal activity inhibition, CA
Measured Quantity: inhibition at 50 µg/mL (%)
Answer with a number only, understood to be in %.

Prompt: Output measured inhibition at 50 µg/mL for this item: CO/C=C(/C(=O)OC)c1ccccc1CO/N=C(\C)CC(O)c1snc(Cl)c1Cl (stereo not shown) [CL04-04-A]
Completion: 75

Prompt: Input CNC(=O)/C(=N/OC)c1ccccc1CO/N=C(\N)c1snc(Cl)c1Cl [CL04-25C] , output reported inhibition at 50 µg/mL.
Completion: 44

Prompt: Using the record for CO/N=C(/C(=O)NC(C)(C)CSC)c1ccccc1CO/N=C(C)/C=C/c1snc(Cl)c1Cl [CL04-32E] , state its measured inhibition at 50 µg/mL.
Completion: 12.5

Prompt: Specify reported inhibition at 50 µg/mL for the compound shown: CO/N=C(/C(=O)N[C@@H](C)CSC)c1ccccc1CO/N=C(\C)c1snc(Cl)c1Cl [CL04-22F]
Completion: 12.5

###

- System: TMV
- Test: Anti-TMV activity on tobacco, induction mode (systemic acquired resistance)
- Type: in vivo, tobacco mosaic virus
- Measurement Parameters: Tobacco mosaic virus, 100 μg/mL, read-out: Anti-TMV activity inhibition, Induction effect
Kindly state inhibition at 100 µg/mL for each of the entries shown.
Record the value in %, omitting the unit from your answer.

Prompt: Give inhibition at 100 µg/mL for the following compound: CO/N=C(/C(=O)NC1CC1)c1ccccc1CO/N=C(C)/C=C/c1snc(Cl)c1Cl [CL04-32C]
Completion: 16

Prompt: Tell me its inhibition at 100 µg/mL given CO/N=C(/C(=O)NC(C)(C)CSC)c1ccccc1CO/N=C(\N)c1snc(Cl)c1Cl [CL04-25D] as the entry.
Completion: 21.1

Prompt: Recall and state the measured inhibition at 100 µg/mL for CO/N=C(/C(=O)NC1CC1)c1ccccc1CO/N=C(\N)c1snc(Cl)c1Cl [CL04-25B] .
Completion: 18.6

###

- System: Rhizoctonia cerealis
- Test: Fungicide activity, mycelial growth inhibition on PDA plate
- Type: cell-based
- Measurement Parameters: Ceratobasidium cereale, 50 μg/mL, R. cerealis; read-out: Fungicidal activity inhibition, RC
Measured Quantity: inhibition at 50 µg/mL (%)
Use % as the unit, but write only the number.

Prompt: Specify inhibition at 50 µg/mL for CO/N=C(/C(=O)NC(C)(C)CSC)c1ccccc1CO/N=C(\N)c1snc(Cl)c1Cl [CL04-25D] , system Rhizoctonia cerealis.
Completion: 62

Prompt: Would you please give the reported inhibition at 50 µg/mL of CO/N=C(/C(=O)NC(C)(C)CSC)c1ccccc1CO/N=C(\C)c1snc(Cl)c1Cl [CL04-22E] with Rhizoctonia cerealis?
Completion: 76

Prompt: Lab note: record inhibition at 50 µg/mL of CNC(=O)/C(=N/OC)c1ccccc1CO/N=C(\C)c1snc(Cl)c1Cl [CL04-22D] tested on Rhizoctonia cerealis.
Completion: 100

Prompt: Report inhibition at 50 µg/mL from Rhizoctonia cerealis testing of "CO/C=C(/C(=O)OC)c1ccccc1CO/N=C(\N)c1snc(Cl)c1Cl"
Completion: 100

Prompt: Report the value of inhibition at 50 µg/mL obtained on Rhizoctonia cerealis for CO/N=C(/C(=O)NC1CC1)c1ccccc1CO/N=C(C)/C=C/c1snc(Cl)c1Cl [CL04-32C] .
Completion: 70.7

Prompt: Send back Rhizoctonia cerealis inhibition at 50 µg/mL of C#CCNC(=O)/C(=N/OC)c1ccccc1CO/N=C(\C)c1snc(Cl)c1Cl [CL04-22B] only.
Completion: 86.9

Prompt: Tell me its inhibition at 50 µg/mL on Rhizoctonia cerealis: CO/N=C(/C(=O)N[C@@H](C)CSC)c1ccccc1CO/N=C(\C)c1snc(Cl)c1Cl [CL04-22F]
Completion: 76

Prompt: Return reported inhibition at 50 µg/mL for target or system Rhizoctonia cerealis, item CO/N=C(/C(=O)OC)c1ccccc1CO/N=C/c1snc(Cl)c1Cl [CL04-15B] .
Completion: 98.2

Prompt: Provide measured inhibition at 50 µg/mL on Rhizoctonia cerealis for CO/N=C(/C(=O)NC(C)(C)CSC)c1ccccc1CO/N=C(C)/C=C/c1snc(Cl)c1Cl [CL04-32E] please.
Completion: 58

Prompt: System Rhizoctonia cerealis. Read-out inhibition at 50 µg/mL. Item CO/N=C(/C(=O)OC)c1ccccc1CO/N=C(\N)c1snc(Cl)c1Cl [CL04-15C] . Report value.
Completion: 89.1

Prompt: Provide inhibition at 50 µg/mL, recorded with Rhizoctonia cerealis, of CO/N=C(/C(=O)N[C@H](C)CSC)c1ccccc1CO/N=C(C)/C=C/c1snc(Cl)c1Cl [CL04-32F]
Completion: 62

Prompt: State inhibition at 50 µg/mL (Rhizoctonia cerealis) of CO/N=C(/C(=O)NC1CC1)c1ccccc1CO/N=C(\C)c1snc(Cl)c1Cl [CL04-22C] .
Completion: 61

Prompt: Write down measured inhibition at 50 µg/mL (Rhizoctonia cerealis) for this compound. CO/N=C(/C(=O)OC)c1ccccc1CO/N=C(\C)c1snc(Cl)c1Cl [CL04-15A]
Completion: 85.5

Prompt: Given "CO/N=C(/C(=O)NCC(F)F)c1ccccc1CO/N=C(\N)c1snc(Cl)c1Cl" , report its inhibition at 50 µg/mL on Rhizoctonia cerealis.
Completion: 62

Prompt: State, for Rhizoctonia cerealis, measured inhibition at 50 µg/mL of the compound listed here: CO/N=C(/C(=O)NCC(F)F)c1ccccc1CO/N=C(\C)c1snc(Cl)c1Cl [CL04-22A]
Completion: 87.7

Prompt: Report inhibition at 50 µg/mL on Rhizoctonia cerealis for this entry: "CO/C=C(/C(=O)OC)c1ccccc1CO/N=C(C)/C=C/c1snc(Cl)c1Cl"
Completion: 100

Prompt: Find the measured inhibition at 50 µg/mL of CO/N=C(/C(=O)NCC(F)F)c1ccccc1CO/N=C(C)/C=C/c1snc(Cl)c1Cl [CL04-32A] with Rhizoctonia cerealis as test system.
Completion: 85.4

Prompt: // output inhibition at 50 µg/mL; input "CO/C=C(/C(=O)OC)c1ccccc1CO/N=C(\C)CC(=O)c1snc(Cl)c1Cl" ; system Rhizoctonia cerealis
Completion: 92.6

Prompt: Print Rhizoctonia cerealis inhibition at 50 µg/mL for "CO/N=C(/C(=O)OC)c1ccccc1CO/N=C(C)/C=C/c1snc(Cl)c1Cl" .
Completion: 81.5

Prompt: Recall the reported inhibition at 50 µg/mL of CO/C=C(/C(=O)OC)c1ccccc1CO/N=C(\C)CC(O)c1snc(Cl)c1Cl (stereo not shown) when tested on Rhizoctonia cerealis.
Completion: 100

Prompt: Find the measured inhibition at 50 µg/mL of C#CCNC(=O)/C(=N/OC)c1ccccc1CO/N=C(\N)c1snc(Cl)c1Cl [CL04-25A] with Rhizoctonia cerealis as test system.
Completion: 65.8

Prompt: State the measured inhibition at 50 µg/mL (Rhizoctonia cerealis) of CNC(=O)/C(=N/OC)c1ccccc1CO/N=C(C)/C=C/c1snc(Cl)c1Cl [CL04-32D]
Completion: 85.4

Prompt: Write down measured inhibition at 50 µg/mL (Rhizoctonia cerealis) for this compound. "CO/C=C(/C(=O)OC)c1ccccc1CO/N=C(\C)c1snc(Cl)c1Cl"
Completion: 100

Prompt: Jot down inhibition at 50 µg/mL (Rhizoctonia cerealis) of "CO/C=C(/C(=O)OC)c1ccccc1CO/N=C/c1snc(Cl)c1Cl" .
Completion: 100

Prompt: Fill in: inhibition at 50 µg/mL on Rhizoctonia cerealis, entry CNC(=O)/C(=N/OC)c1ccccc1CO/N=C(\N)c1snc(Cl)c1Cl [CL04-25C]
Completion: 100

Prompt: Provide Rhizoctonia cerealis inhibition at 50 µg/mL reading for C#CCNC(=O)/C(=N/OC)c1ccccc1CO/N=C(C)/C=C/c1snc(Cl)c1Cl [CL04-32B] .
Completion: 100

Prompt: Report inhibition at 50 µg/mL from Rhizoctonia cerealis testing of CO/N=C(/C(=O)N[C@@H](C)CSC)c1ccccc1CO/N=C(\N)c1snc(Cl)c1Cl [CL04-25E]
Completion: 54

Prompt: State, for Rhizoctonia cerealis, measured inhibition at 50 µg/mL of the compound listed here: CO/N=C(/C(=O)NC1CC1)c1ccccc1CO/N=C(\N)c1snc(Cl)c1Cl [CL04-25B]
Completion: 85.4
